targetOrSystem: MycN (Homo sapiens, UniProt P04198)
Construct: endogenous in cells; host or cells: SK-N-BE(2)
Sequence (P04198 1-464): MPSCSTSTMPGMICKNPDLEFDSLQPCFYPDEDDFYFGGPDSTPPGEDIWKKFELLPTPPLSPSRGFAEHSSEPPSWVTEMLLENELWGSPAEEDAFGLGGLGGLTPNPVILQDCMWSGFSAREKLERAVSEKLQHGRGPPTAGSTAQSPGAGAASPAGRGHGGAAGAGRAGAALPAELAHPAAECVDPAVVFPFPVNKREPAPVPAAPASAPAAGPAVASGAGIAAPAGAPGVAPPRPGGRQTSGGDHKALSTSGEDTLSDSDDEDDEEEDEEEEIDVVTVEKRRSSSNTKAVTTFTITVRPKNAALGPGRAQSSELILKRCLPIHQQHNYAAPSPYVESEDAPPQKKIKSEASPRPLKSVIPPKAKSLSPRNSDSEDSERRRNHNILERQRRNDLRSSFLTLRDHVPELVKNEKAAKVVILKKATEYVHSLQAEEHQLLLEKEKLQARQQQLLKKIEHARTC
protocolDescription: Degradation of MycN protein in SK-N-BE(2) cells, JESS/Western blot of lysates
Format: cell-based
conditionParameters: SKNBE2, 24 h, SKNBE2 cells, 24 h, 3 μM; read-out: % Degradation of MycN (SKNBE2) 24 h, 3 μM
experimentalReadout: Dmax at 3 µM

Record excerpt, results attached:
compound	Dmax at 3 µM
CNC[C@H]1CCN(c2nccc(Nc3cc(C4CC4)[nH]n3)n2)C1	50 to 79%
c1cc(Nc2cc(C3CC3)[nH]n2)nc(N2CC3(CNC3)C2)n1	< 20%
CNCCCN(C)c1nccc(Nc2cc(C3CC3)[nH]n2)n1	< 20%
CNC[C@H]1CN(c2nccc(Nc3cc(C4CCCC4)[nH]n3)n2)C[C@H]1F	20 to 49%
CNC[C@H]1CCN(c2nccc(Nc3cc(C4CCCC4)[nH]n3)n2)C1	80 to 100%
CN1CC2(CCN(c3nccc(Nc4cc(C5CC5)[nH]n4)n3)CC2)C1	20 to 49%
CNCC12CCC(C1)N(c1nccc(Nc3cc(C4CCCC4)[nH]n3)n1)C2 (stereo not drawn)	80 to 100%
NC[C@H]1CCN(c2nccc(Nc3cc(C4CCCC4)[nH]n3)n2)C1	80 to 100%

API: the following record is the query input.
Read the entry NC[C@H]1CN(c2nccc(Nc3cc(C4CC4)[nH]n3)n2)C[C@H]1F and write its reported Dmax at 3 µM.
50 to 79%
